Tested on: momingglory (Ipomoea hederacea)
Test: Test B pre-/postemergence
Type: in vivo
Set-up: key: 0 is no effect; 10 is complete control
Conditions: Rate 250 g/ha, Postemergence
Plant response rating, Morningglory below 9 gives 0 (no); Plant response rating, Morningglory at or above it gives 1 (yes).

Worked cases, answers included:
Cc1cnc(-c2ccc(C(F)(F)F)cc2)nc1Cc1cccc(C(F)(F)F)c1 [Example 1]    1 (yes)
Cc1cnc(-c2ccc(C(F)(F)F)cc2)nc1C(C#N)c1cccc(C(F)(F)F)c1 (racemic) [Compound 17]    0 (no)
Cc1cnc(-n2cnc(C(F)(F)F)n2)nc1Cc1cccc(C(F)(F)F)c1 [Compound 43]    1 (yes)
Cc1cnc(-c2cccc(C(F)(F)F)c2)nc1Cc1cccc(C#N)c1 [Compound 39]    0 (no)
Cc1cnc(-c2ccc(C(F)(F)F)cc2)nc1Cn1cc(Br)cn1 [Compound 54]    0 (no)
Cc1cnc(-c2ccc(C(F)(F)F)cc2)nc1C(=O)c1ccc(C(F)(F)F)cc1 [Compound 74]    0 (no)
Cc1cnc(-c2ccc(Cl)cc2)nc1Cc1cccc(C(F)(F)F)c1 [Compound 28]    0 (no)

API: the following record is the query input.
Could you please find out whether Cc1cnc(-c2ccc(C(F)(F)F)cc2)nc1Cn1ccc(C(F)(F)F)n1 [compound 9] has Plant response rating, Morningglory that meets 9 or exceeds it? 1 (yes)

###

Test system: bedstraw (Galium aparine)
Assay: Test B pre-/postemergence
Type: in vivo
Set-up: key: 0 is no effect; 10 is complete control
Settings: Rate 62 g/ha, Postemergence
Test readout: Plant response rating, Bedstraw

COc1cnc(-n2ccc(C(F)(F)F)n2)nc1Cc1cccc(C(F)(F)F)c1    0

What value of Plant response rating, Bedstraw has been recorded for this entry: Cc1cnc(-n2cnc(C(F)(F)F)c2)nc1Cc1cccc(C(F)(F)F)c1 8

What measured Plant response rating, Bedstraw goes with Cc1cnc(-c2ccc(OC(F)(F)F)cc2)nc1Cc1cccc(C(F)(F)F)c1 ? 3

Consider the molecule shown here: COc1cnc(-c2ccc(C(F)(F)F)cc2)nc1Cc1cccc(C(F)(F)F)c1 What is its recorded Plant response rating, Bedstraw? 9

Param item = Cc1cnc(-c2cccc(C(F)(F)F)c2)nc1Cc1cccc(C(F)(F)F)c1 ; retrieve measured Plant response rating, Bedstraw. 4

###

Test system: bedstraw (Galium aparine)
Experiment: Test B pre-/postemergence
Type: in vivo
Details: Rate 250 g/ha, Preemergence
# Lookup of reported Plant response rating, Bedstraw keyed by entry
Lab note: record the figure alone, no unit after it.

Solved entries (count: 5):
Cc1cnc(-c2cccc(C(F)(F)F)c2)nc1Cc1cccc(C(F)(F)F)c1    1
Cc1cnc(-n2ccc(C(F)(F)F)n2)nc1C(=O)c1cccc(OC(F)(F)F)c1    3
Cc1cnc(-n2ccc(C(F)(F)C(F)(F)F)n2)nc1C(=O)c1cccc(C(F)(F)F)c1    6
Cc1cnc(-c2ccc(C(F)(F)F)cc2)nc1Cn1ccc(C#N)n1    7
Cc1cnc(-c2ccc(C(F)(F)F)cc2)nc1C(=O)c1cccc(OC(F)(F)F)c1    6

Value lookup for Plant response rating, Bedstraw; key = Cc1cnc(-c2ccc(C(F)(F)F)cc2)nc1Cn1cc(Br)cn1 1

If you can, please state the reported Plant response rating, Bedstraw value of N#Cc1ccc(-c2nccc(C(=O)c3cccc(C(F)(F)F)c3)n2)cc1 . 0

Give its Plant response rating, Bedstraw value. Item: Cc1cnc(-c2ccc(C(F)(F)F)cc2)nc1Cn1cnc(C(F)(F)F)c1 7

###

System: blackgrass (Alopecurus myosuroides)
Experiment: Test B pre-/postemergence
Format: in vivo
Settings: Rate 125 g/ha, Preemergence
Kind request: treat 2 as inclusive, so Blackgrass plant response rating at 2 or higher is Criterion met, anything lower is Criterion not met.

Hi team, for Cc1cnc(-n2cnc(C(F)(F)F)c2)nc1Cc1cccc(C(F)(F)F)c1 , is the recorded Blackgrass plant response rating at or above 2? Criterion met

Decide: is the reported value of Blackgrass plant response rating for Cc1cnc(-c2ccccc2F)nc1Cc1cccc(C#N)c1 equal to or greater than 2? Criterion not met

Has Cc1cnc(-c2ccc(F)c(Cl)c2)nc1Cc1cccc(C#N)c1 a recorded Blackgrass plant response rating greater than or equal to 2? Criterion not met

Does the molecule Cc1cnc(-c2cccc(C(F)(F)F)c2)nc1Cc1cccc(C#N)c1 have recorded Blackgrass plant response rating that is 2 or more? Criterion not met

State whether the measured Blackgrass plant response rating reaches 2, counting equality as reaching it, for Cc1cnc(-c2ccc(C(F)(F)F)cc2)nc1Cc1cccc(C(F)(F)F)c1 Criterion met

Hi team, for CCc1cnc(-n2ccc(C(F)(F)F)n2)nc1Cc1cccc(C(F)(F)F)c1 , is the recorded Blackgrass plant response rating at or above 2? Criterion met

Is reported Blackgrass plant response rating greater than or equal to 2 here: Cc1cnc(-c2ccc(C(F)(F)F)cc2)nc1Cn1ccc(C(F)(F)F)n1 Criterion met

Is the recorded value of Blackgrass plant response rating equal to or greater than 2 for this molecule? Cc1cnc(-c2ccc(F)c(Cl)c2)nc1Cc1cccc(C(F)(F)F)c1 Criterion met

Given the entry Cc1cnc(-c2ccc(Cl)cc2F)nc1Cc1cccc(C(F)(F)F)c1 , answer whether its Blackgrass plant response rating meets or surpasses 2. Criterion not met

Test whether the molecule Cc1cnc(-n2cnc(C(F)(F)F)n2)nc1Cc1cccc(C(F)(F)F)c1 records Blackgrass plant response rating of 2 or higher. Criterion met

###

System: smallflower flatsedge (Cyperus difformis)
Test: Test B flood test
Format: in vivo
Settings: Rate 62 g/ha, Postemergence (flood test)
Output satisfied for Plant response rating, S. Flatsedge not less than 4; output not satisfied otherwise.

Cc1cnc(-c2ccc(Cl)cc2)nc1Cn1ccc(C(F)(F)F)n1    not satisfied
Cc1cnc(-c2ccc(Cl)c(Cl)c2)nc1Cc1cccc(C(F)(F)F)c1    satisfied
Cc1cnc(-c2ccc(Cl)c(Cl)c2)nc1Cc1cccc(C#N)c1    not satisfied
COC(c1cccc(C(F)(F)F)c1)c1nc(-c2ccc(C(F)(F)F)cc2)ncc1C (racemic)    not satisfied

Has CCc1cnc(-n2ccc(C(F)(F)F)n2)nc1Cc1cccc(OC(F)(F)F)c1 a recorded Plant response rating, S. Flatsedge greater than or equal to 4? satisfied

Kindly determine if Plant response rating, S. Flatsedge recorded for CCc1cnc(-n2cnc(C(F)(F)F)n2)nc1Cc1cccc(OC(F)(F)F)c1 is above or exactly 4. satisfied

Record COC(=O)C(c1cccc(C(F)(F)F)c1)c1nc(-c2ccc(C(F)(F)F)cc2)ncc1C (racemic) ; criterion: Plant response rating, S. Flatsedge no lower than 4. Met? satisfied

# check: Plant response rating, S. Flatsedge of CCc1cnc(-c2ccc(C(F)(F)F)cc2)nc1Cc1cccc(OC(F)(F)F)c1 is greater than or equal to 4 satisfied

###

System: blackgrass (Alopecurus myosuroides)
Assay: Test B pre-/postemergence
Type: in vivo
Conditions: Preemergence, Rate 62 g/ha; scale of 0 to 10
Test readout: Plant response rating, Blackgrass
Please give only the number in your answer, with no unit.

Reported Plant response rating, Blackgrass for Cc1cnc(-n2ccc(C(F)(F)F)n2)nc1C(=O)c1cccc(C(F)(F)F)c1 [Compound 59] : what is it? 2

What value of Plant response rating, Blackgrass has been recorded for this entry: O=C(c1cccc(C(F)(F)F)c1)c1ccnc(-c2ccc(F)cc2F)n1 [Compound 76] 0

# get_value(readout='Plant response rating, Blackgrass', item= Cc1cnc(-n2ccc(C(F)(F)C(F)(F)F)n2)nc1C(=O)c1cccc(OC(F)(F)F)c1 [Compound 62] ) 1

Can you share its Plant response rating, Blackgrass? I mean this molecule: Cc1cnc(-n2cnc(C(F)(F)F)n2)nc1C(=O)c1cccc(OC(F)(F)F)c1 [Compound 64] 5

###

System: dallisgrass (Paspalum dilatatum)
Test: Test E pre-/postemergence/post directed
Type: in vivo
Design: key: 0 is no effect; 100 is complete control
Conditions: PREEMERGENCE, Rate 125 g/ha
Test readout: Plant response rating, Dallisgrass
No unit in the answer, only the number.

Worked set:
Cc1cnc(-c2ccc(C(F)(F)F)cc2)nc1Cc1cccc(OC(F)(F)F)c1 [Compound 15]    100
Cc1cnc(-n2ccc(C(F)(F)F)n2)nc1Cc1cccc(OC(F)(F)F)c1 [Compound 42]    100
Cc1cnc(-n2cnc(C(F)(F)F)c2)nc1Cc1cccc(C(F)(F)F)c1 [Compound 44]    90

Here's the next entry for you.
Value lookup for Plant response rating, Dallisgrass; key = Cc1cnc(-n2ccc(C(F)(F)F)n2)nc1Cn1ccc(C(F)(F)F)n1 [Compound 52] 90

###

Tested on: soybean (Glycine max)
Assay: Test B pre-/postemergence
Format: in vivo
Details: Rate 62 g/ha, Postemergence
Each record here notes measured Plant response rating, Soybean.

Cc1cnc(-c2ccc(Cl)cc2F)nc1Cc1cccc(C#N)c1 [Compound 35]    1

Now for the compound whose Plant response rating, Soybean we want.
Any idea what Plant response rating, Soybean was measured for Cc1cnc(-c2ccc(C(F)(F)F)cc2)nc1Cn1ccc(C(F)(F)C(F)(F)F)n1 [Compound 14] ? 4

The measurements presented in this section are drawn from patent US6525001B1.
